Exercise: for every item that follows, state its recorded furin cleavage Z-score.
Molecular target: furin, P09958;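 further: purified furin at 1:10 enzyme:substrate in 50 mM HEPES pH 7.5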
Sequence (P09958 whole entry): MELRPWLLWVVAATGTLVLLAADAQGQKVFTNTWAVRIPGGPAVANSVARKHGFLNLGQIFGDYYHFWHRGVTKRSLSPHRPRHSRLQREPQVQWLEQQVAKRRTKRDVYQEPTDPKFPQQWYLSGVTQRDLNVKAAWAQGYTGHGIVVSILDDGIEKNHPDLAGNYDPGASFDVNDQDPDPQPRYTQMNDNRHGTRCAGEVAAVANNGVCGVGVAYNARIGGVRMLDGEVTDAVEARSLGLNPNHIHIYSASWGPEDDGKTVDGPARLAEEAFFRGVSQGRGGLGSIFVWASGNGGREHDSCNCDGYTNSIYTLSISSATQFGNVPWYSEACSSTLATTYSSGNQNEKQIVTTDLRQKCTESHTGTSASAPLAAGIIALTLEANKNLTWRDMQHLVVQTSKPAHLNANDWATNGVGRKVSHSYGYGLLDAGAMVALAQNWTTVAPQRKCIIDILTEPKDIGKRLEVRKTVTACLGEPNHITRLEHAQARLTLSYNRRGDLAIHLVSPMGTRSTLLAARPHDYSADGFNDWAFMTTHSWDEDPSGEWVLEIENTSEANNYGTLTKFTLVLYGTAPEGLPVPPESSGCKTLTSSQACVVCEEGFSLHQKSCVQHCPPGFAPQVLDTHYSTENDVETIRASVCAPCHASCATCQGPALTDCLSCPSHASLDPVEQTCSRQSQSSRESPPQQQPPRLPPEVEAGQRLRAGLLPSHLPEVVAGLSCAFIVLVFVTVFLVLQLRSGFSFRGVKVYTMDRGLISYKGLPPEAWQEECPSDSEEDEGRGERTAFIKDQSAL
Assay: furin cleavage Z-score vs untreated control; higher = more cleavage, active = 3.5 or more, inactive = 1 or less, 8 variable residues between constant flanks
Conditions: 7.5 min
The other results are listed elsewhere or left out. How many sequences the whole screen found active is unknown.

CAVVCCSMNYAGNASASA [HC2081]; -0.198 (inactive)
CALTPLRDWAAGNASASA [HC637]; -0.181 (inactive)

I would be grateful if you could provide furin cleavage Z-score for each of the following entries.
1. CALRPRQRRAAGNASASA [FS-360]
2. CALRLRGPRAAGNASASA [FS-943]

7.42 (active)
4.69 (active)
